From: PubChem BioAssay (NCATS)

Test system: P94_40
Assay: qHTS profiling for inhibitors of Plasmodium falciparum proliferation (AID 504749); also: nearly all actives have a fitted effect of over 60% in size
Details: P. falciparum in erythrocytes, SYBR Green DNA, 72 h; series mostly up to 28.7 µM
Results filed as inconclusive are left out. Activity calls are given as the source filed them. Calls follow the shape of the dose curve; as a rule, active = well fitted inhibition curve with a large enough effect; inconclusive = small, poorly fitted or top-dose-only effect; inactive = flat fitted curve, though single readings scatter.
In this exercise, the only acceptable responses are active, inactive

Please review the entries below; each comes with its answer.
# Compound, Label
data = [
    ("NC(N)=NC(=O)c1nc(Cl)c(N)nc1N", "active"),
    ("NS(=O)(=O)c1cc2c(cc1Cl)NC=NS2(=O)=O", "inactive"),
    ("CCCc1nc2c(C)cc(-c3nc4ccccc4n3C)cc2n1Cc1ccc(-c2ccccc2C(=O)O)cc1", "active"),
    ("CC(C)C[C@H](NC(=O)[C@@H](O)[C@H](N)Cc1ccccc1)C(=O)O", "active"),
]

Short answer needed: outcome of this test for C#Cc1cccc(Nc2ncnc3cc(OCCOC)c(OCCOC)cc23)c1 ?
active

Short answer needed: outcome of this test for O=C1CCC(N2C(=O)c3ccccc3C2=O)C(=O)N1 (stereo unspecified) ?
inactive

====

Recorded z-score by entry
Experiment: qHTS for identification of novel therapeutic agents for treatment of microphthalmiaassociated transcription factor (MiT) renal cell carcinoma (RCC) (AID 1963991);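 also: curves scaled with 100% = DMSO viability and 0% = empty wells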
Conditions: TFE3-RCC viability, CellTiter-Glo, 48 h; measured here: UOK124 Z-AUC; stronger effect = lower value
Method: PI: Marston Linehan Ph.D. Urologic Oncology Branch, Center for Cancer Research (CCR) National Cancer Institute (NCI), National Institute of Health (NIH), Bethesda, Maryland […] 6; Detection; Luminescence; ViewLux plate reader (PerkinElmer). […] 1. Quantitative high-throughput screening (qHTS) of 1912 pharmacologically defined small molecule compounds was conducted on three TFE3-fusion cell lines bearing three different fusion partners (UOK109, UOK124, UOK145). […]
Results filed as inconclusive are left out.
Lab note: jot the number down without any unit.

Solved entries (count: 4):
# Compound, Meas Value
data = [
    ("c1ccc([C@H]2CN3CCSC3=N2)cc1", 0.703),
    ("NC(=O)c1ccc(I)c([N+](=O)[O-])c1", 0.616),
    ("NCCc1ccc(O)c(O)c1", 0.079),
    ("NC(=O)C1CCCc2c1[nH]c1ccc(Cl)cc21 (configuration not stated)", 0.823),
]

Consider the compound COc1nc(-c2ccc3c(c2)OCO3)n(-c2ccc(NC(=O)CSc3ccccc3)cc2)n1 and give its measured z-score.
0.0138

Consider the compound C[C@]12CC[C@H](O)CC1=CC[C@@H]1[C@H]2CC[C@]2(C)C(c3cccnc3)=CC[C@H]12 and give its measured z-score.
0.84

Consider the compound OC(CCN1CCCCC1)(c1ccccc1)C1CC2C=CC1C2 (configuration not stated) and give its measured z-score.
0.56

====

System: Tov-21-G
Test: Primary qHTS to identify gynecologic anti-cancer compounds using libraries of approved drugs and bioactive compounds (AID 1345084); also: nearly all actives have a fitted effect of over 55% in size
Conditions: Gynecologic cancer cell panel viability, ATPlite luminescence, 48 h; series mostly up to 57.5 µM
Results filed as inconclusive are left out. The source made the active and inactive calls. Calls come from the whole dose curve; as a rule, active = well fitted cell-killing curve with a large enough effect; inconclusive = small, poorly fitted or top-dose-only effect, or effect the other way; inactive = flat fitted curve, though single readings scatter.
In this exercise, the only acceptable responses are class 1 = active, class 0 = inactive

Short answer needed: outcome of this test for CNC(=O)c1ccccc1Sc1ccc2c(/C=C/c3ccccn3)n[nH]c2c1 ?
class 1

Short answer needed: outcome of this test for COc1ccccc1[C@H](c1cccc2ccccc12)[C@@](C)(C#N)C(=O)N1CCC(c2cccc(C(F)(F)F)c2)CC1 ?
class 0

Short answer needed: outcome of this test for COc1cccc2cc(-c3nc(C4CCC(C(=O)O)CC4)n4ncnc(N)c34)[nH]c12 (stereo not given) ?
class 1

Short answer needed: outcome of this test for c1ccc([C@H]2CN3CCSC3=N2)cc1 ?
class 0
